Would you mind telling me the reported growth of each entry?
Test system: OVCAR-4 ovarian
Experiment: NCI-60 one-dose screen, 48 h (100 = growth as untreated, 0 = no growth, -100 = all killed)
Conditions: 10 µM unless noted
This is part of a sample that, as a whole, favours compounds with a hit. Of some 83,000 tested, about 20% had one in any assay.
One number for each entry, in %.

Observe how each entry below is paired with its result.
Would you kindly share the measured growth for COc1cc[c]([Hg][Cl])cc1 ?
65.1

Would you kindly share the measured growth for ClCCN(CCCl)c1nc(Cl)c(C2CC(c3ccc(Cl)cc3)=NN2c2cc(Cl)cc(Cl)c2)s1 (centres undefined) ?
99.7

Would you kindly share the measured growth for Oc1ccccc1OB(Oc1ccccc1O)N(CCCl)CCCl ?
96.8

Report growth for every entry below.
1. C[C@]12CC[C@@H]3c4ccc(OC(=O)Cc5ccc(N(CCCl)CCCl)cc5)cc4CC[C@H]3[C@@H]1CC[C@@H]2OC(=O)Cc1ccc(N(CCCl)CCCl)cc1
2. CC(C)(C)[Si](C)(C)OC1[C@@H](O[Si](C)(C)C(C)(C)C)[C@@H](CNC(=O)NC(=O)CF)O[C@H]1n1cnc2c(NC(=O)Nc3ccccc3)ncnc21 (some centres undefined)
3. CC(N)Cc1ccc(O)cc1 (centres undefined)
4. COC1=CC(=O)OC(CCc2ccc3c(c2)OCO3)C1 (centres undefined)
5. CC(/C=N/N=C(N)N)=N/N=C(N)N

[111, 63.8, 124, 106, 91.9]

---

Tested on: HL-60(TB) leukemia
Assay: NCI-60 one-dose screen, 48 h (100 = growth as untreated, 0 = no growth, -100 = all killed)
Settings: 10 µM unless noted
Compounds without any hit were thinned out: in the full panel of roughly 83,000, 20% have a hit.
Would you mind telling me the reported growth of each entry?
Numbers only, in %.

Would you kindly share the measured growth for C[C@@H]1CC[C@@H]2[C@@H]1[C@H](OC(=O)/C=C/c1ccccc1)[C@]1(CCCOCCOCCOCCOC(=O)CCCC[C@@H]3SC[C@@H]4NC(=O)N[C@@H]43)C[C@@H](OC(=O)CO)[C@@]2(C)O1 ?
98.1

Report growth for every entry below.
1. COc1cc(NC(=O)C2=C(C)NC(C)=C(C(=O)Nc3cc(OC)c(Cl)cc3OC)C2c2cccc([N+](=O)[O-])c2)c(OC)cc1Cl
2. CC[C@]1(O)C[C@H]2CN(CCc3c([nH]c4ccccc34)[C@@](C(=O)OC)(c3cc4c(cc3OC)N(C=O)[C@H]3[C@@](O)(C(=O)OC)[C@H](OC(C)=O)[C@]5(CC)C=CCN6CC[C@]43[C@@H]65)C2)C1
3. CC1(C)OC2C(CO)OC(n3ccc(=O)[nH]c3=O)C2O1 (configuration not stated)

1. 15.5
2. -25.1
3. 105

Report growth for every entry below.
1. Cn1c2c(c3ccc(-c4ccn[nH]4)cc3c1=O)C(=O)c1ccccc1-2
2. O=C1C(N2CCOCC2)=Cc2cccc3cccc1c23
3. C=C1C(=O)O[C@H]2[C@H]1CC/C(COC(=O)NCc1ccc(Cn3c(=O)sn(-c4ccc(I)cc4)c3=O)cc1)=C\CC[C@@]1(C)O[C@@H]21

-17.7
-26
-32

---

System: SNB-75 CNS
Assay: NCI-60 one-dose screen, 48 h (100 = growth as untreated, 0 = no growth, -100 = all killed)
Conditions: 10 µM unless noted
The panel holds about 83,000 compounds, 20% with a hit somewhere; the sample as a whole holds those more often. Active and inactive are the calls of the source. How the source made its calls: active means growth percent below 10; inactive means the rest.
Would you mind telling me the reported growth of each entry?

Would you kindly share the measured growth for CC(=O)O[C@@H]1C2=C(C)C3(CC3)[C@@](C)(O)C(=O)C2=C[C@@]1(C)CO ?
-85.7% (active)

Would you kindly share the measured growth for Oc1c(Br)cc(Br)cc1Br.[Cu+2] ?
98.7% (inactive)

Would you kindly share the measured growth for ClCCN(CCCl)c1ccc(/C=C\c2ccnc3ccccc23)cc1 ?
84.6% (inactive)

Would you kindly share the measured growth for O=C(C(=O)N1CCCC1)c1cn(CCCCCn2cc(C(=O)C(=O)N3CCCC3)c3ccccc32)c2ccccc12 ?
74.9% (inactive)

Would you kindly share the measured growth for Cc1cccc(N=C2c3cc([N+](=O)[O-])ccc3-c3c2cc([N+](=O)[O-])cc3[N+](=O)[O-])c1 ?
84.4% (inactive)

Would you kindly share the measured growth for COP(=S)(OC)Oc1ccc(SC)c(C)c1 ?
89.6% (inactive)

Report growth for every entry below.
1. CC(=O)[O][Hg][c]1ccccc1
2. COc1cc(C2CC(=O)Nc3nc(N)[se]c32)c(OC)c2c1OCO2 (configuration not stated)
3. O=C(CCCN1CCC2(CC1)C(=O)NCN2c1ccc(F)cc1)c1ccc(F)cc1
4. COC(=O)C1CC2c3ccccc3C1c1ccccc12 (configuration not stated)
5. CC(=O)Nc1ccc(Cc2ccc(NC(C)=O)cc2)cc1

["-65.9% (active)", "101% (inactive)", "92.4% (inactive)", "94.5% (inactive)", "93.4% (inactive)"]

Report growth for every entry below.
1. O=S(=O)(F)c1ncnc2nc[nH]c12
2. CC(=O)O[C@H]1C[C@H](O[C@H]2[C@@H](O)C[C@H](O[C@H]3[C@@H](O)C[C@H](O[C@H]4CC[C@@]5(C)C(CCC6C5C[C@@H](O)[C@]5(C)[C@@H](C7=CC(=O)OC7)CC[C@]65O)C4)O[C@@H]3C)O[C@@H]2C)O[C@H](C)[C@H]1O[C@@H]1O[C@H](CO)[C@@H](O)[C@H](O)[C@H]1O (some centres not stated)
3. CC1(C)N=C(N)N=C(N)N1c1ccc(CCC(=O)Nc2cccc(S(=O)(=O)F)c2)cc1
4. COc1ccc(CN2CCN(Cc3ccccc3)CC2)c(O)c1
5. Nc1cccc(CC(=O)Nc2ccc(S(=O)(=O)F)cc2)c1
6. CCC(/C=C(C)/C=C/C(=O)c1c(O)c(-c2ccc(O)cc2)c[nH]c1=O)CO (configuration not stated)
7. CC(C)(C)NCC(O)c1ccccc1Cl (configuration not stated)

87.3% (inactive)
-66.1% (active)
59.5% (inactive)
89.8% (inactive)
71.8% (inactive)
91.3% (inactive)
-24.4% (active)
